Would you kindly list COX-2 selectivity index (S.I.) for each of these compounds?
# tgt: recombinant COX-2 (human) (Homo sapiens)
# Construct: purchased Cayman Chemical 560131
# Sequence (P35354 18-604): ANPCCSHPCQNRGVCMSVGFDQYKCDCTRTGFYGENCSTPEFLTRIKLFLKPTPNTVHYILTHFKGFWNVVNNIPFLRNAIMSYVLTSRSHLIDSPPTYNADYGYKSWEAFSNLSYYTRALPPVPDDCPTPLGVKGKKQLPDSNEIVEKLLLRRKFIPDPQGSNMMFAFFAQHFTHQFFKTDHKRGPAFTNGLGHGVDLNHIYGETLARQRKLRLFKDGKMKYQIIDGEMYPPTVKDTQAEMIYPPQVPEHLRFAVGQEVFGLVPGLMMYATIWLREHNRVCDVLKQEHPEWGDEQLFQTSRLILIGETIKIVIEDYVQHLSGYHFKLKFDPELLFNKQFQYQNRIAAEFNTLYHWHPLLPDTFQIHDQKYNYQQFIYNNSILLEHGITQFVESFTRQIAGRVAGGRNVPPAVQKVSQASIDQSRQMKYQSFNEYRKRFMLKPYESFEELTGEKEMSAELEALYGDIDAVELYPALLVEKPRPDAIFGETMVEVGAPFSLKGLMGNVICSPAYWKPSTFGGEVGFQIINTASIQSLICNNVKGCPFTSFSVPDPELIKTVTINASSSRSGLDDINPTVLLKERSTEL
# procedure text: COX-2 inhibition, ELISA kit (Cayman Chemical)
# Format: biochemical
# measurement conditions: ratio of COX-1 IC50 to COX-2 IC50
# Description: These enzymes are crucial targets in the development of anti-inflammatory agents due to their roles in prostaglandin synthesis, with COX-1 associated with normal physiological functions and COX-2 predominantly involved in inflammation.
Give bare numbers.

The cases that follow already have their COX-2 selectivity index (S.I.) on record.
O=C(Cc1ccccc1Nc1c(Cl)cccc1Cl)NN=Cc1c([O-])ccc2ccccc12.O=C(Cc1ccccc1Nc1c(Cl)cccc1Cl)NN=Cc1c([O-])ccc2ccccc12.[Co+2] [Co(II)-HDN, [Co(DN)2]] | 13.71
O.O=C(Cc1ccccc1Nc1c(Cl)cccc1Cl)NN=Cc1c([O-])ccc2ccccc12.[Ag+] [Ag(I)-HDN, [Ag(DN)(H2O)]] | 14.15

Take each entry in turn and give its COX-2 selectivity index (S.I.).
1. O.O.O.O.O=C(Cc1ccccc1Nc1c(Cl)cccc1Cl)NN=Cc1c(O)ccc2ccccc12.O=C(Cc1ccccc1Nc1c(Cl)cccc1Cl)NN=Cc1c(O)ccc2ccccc12.O=[N+]([O-])[O-].O=[N+]([O-])[O-].O=[N+]([O-])[O-].[Gd+3] [Gd(III)-HDN, [Gd(HDN)2(NO3)2]NO3.4H2O]
2. O=C(Cc1ccccc1Nc1c(Cl)cccc1Cl)N/N=C/c1c(O)ccc2ccccc12 [Ligand [HDN]]

RESULT:
1: 6.31; 2: 174.5
